Reported IC50 values are given for each entry in this list.
experiment: Inhibition of recombinant Mycobacterium tuberculosis MurE expressed in Escherichia coli BL21(DE3) cells using UDP-MurNAc-dipeptide as substrate incubated for 30 mins by phosphate release based colorimetric assay; format: cell-based

{"columns": ["compound", "reported_relation", "IC50 [µM]"],
 "data": [
  ["CCCCCCCCCC/C=C/C1CC(=O)c2ccccc2N1C (configuration not stated)", "=", 72],
  ["CCCCCCCCC/C=C\\CCCC1CC(=O)c2ccccc2N1C (configuration not stated)", "=", 52],
  ["CCCCCCCC/C=C\\CCCCC1CC(=O)c2ccccc2N1C (configuration not stated)", "=", 36],
  ["CCCCCCCCCCC/C=C/C1CC(=O)c2ccccc2N1C (configuration not stated)", "=", 52],
  ["COc1c(O)c2c3c(c1OC)CCN[C@H]3Cc1cc3c(cc1-2)OCO3.Cl", "=", 57],
  ["NNC(=O)c1ccncc1", ">", 1000],
  ["CCCCCCCC/C=C/C1CC(=O)c2ccccc2N1C (configuration not stated)", "=", 70]
]}

----------
experiment: Inhibition of N-terminal His-tagged Mycobacterium tuberculosis MurE expressed in Escherichia coli BL21 (DE3) cells using UDP-GlcNAc as initial substrate pretreated with compound for 15 mins followed by substrate addition measured after 30 mins in presence of ATP by phosphate release based assay relative to control
Reported IC50 values are given for each entry in this list.

{"columns": ["molecule", "IC50"],
 "data": [
  ["CCCCCCCCC/C=C\\CCCC1CC(=O)c2ccccc2N1C (configuration not stated)", "17 µM"],
  ["COc1c(O)c2c3c(c1OC)CCN[C@H]3Cc1cc3c(cc1-2)OCO3.Cl", "61.6 µM"]
]}

----------
Reported selectivity ratio values are given for each entry in this list.
experiment: Selectivity index, ratio of IC50 for cytotoxicity against mouse RAW264.7 cells to MIC for antitubercular activity against Mycobacterium tuberculosis H37Rv ATCC 27294; assay type: toxicity, cell-based; details: RAW264.7 cells, read-out: Selectivity Index
assay_readout: selectivity ratio

{"columns": ["compound", "assay_readout", "data_value"],
 "data": [
  ["CCCCCCCCC/C=C\\CCCC1CC(=O)c2ccccc2N1C (stereo unspecified)", "selectivity ratio", 1],
  ["CCCCCCCCCCC/C=C/C1CC(=O)c2ccccc2N1C (stereo unspecified)", "selectivity ratio", 1],
  ["CCCCCCCCCC/C=C/C1CC(=O)c2ccccc2N1C (stereo unspecified)", "selectivity ratio", 1],
  ["CCCCCCCC/C=C/C1CC(=O)c2ccccc2N1C (stereo unspecified)", "selectivity ratio", 1],
  ["COC(=O)N1CCc2c(OC)c(OC)c(O)c3c2[C@@H]1Cc1cc2c(cc1-3)OCO2", "selectivity ratio", 0.52],
  ["CCCCCCCC/C=C\\CCCCC1CC(=O)c2ccccc2N1C (stereo unspecified)", "selectivity ratio", 1]
]}

These entries and their values trace back to ChEMBL document CHEMBL5096189.
